System: PXR:RXRa (NR concentration 270 nM, RXRa partner concentration 90 nM)
Test: PBM binding z-score (relative to random genomic background probes); higher = stronger binding; sequences stand for … in GC…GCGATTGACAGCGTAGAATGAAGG
Measured endpoint: PBM binding z-score
The answer should be a number; do not append a unit.

# count of solved cases: 3
- Polymer sequence: "AGAACGAGGGCAATAAGTTGATAGCACGGGTGGC"
  PBM binding z-score: 1.09
- Polymer sequence: "TCTAGTTGGTCACGGAGGTCAGACACGACGGGTA"
  PBM binding z-score: 2.96
- Polymer sequence: "AGAACGAGGGCACGCTGAGTTCATAGCAGAGTAG"
  PBM binding z-score: 5.94

Prompt: Endpoint output: PBM binding z-score of CGTCCAAGGTCAATGCTAGGTCAGTGAGAGCATT . Value?
Completion: 5.05

Prompt: Endpoint output: PBM binding z-score of TAGCCTAGGTCATGCGGGCCTGTATAGTGTCGGC . Value?
Completion: 1.27

Prompt: Endpoint output: PBM binding z-score of TTACCAAGATGAGCTGAGGTCGTTGATCCAACTC . Value?
Completion: 1.87

Prompt: Endpoint output: PBM binding z-score of TCTTGTAGATCAAAAGGAGGTTAAGAAAGATCGA . Value?
Completion: 0.871

Prompt: Endpoint output: PBM binding z-score of GATACAGGGTCAGCTAGAGGCCCGAGTATGGAAA . Value?
Completion: 1.72

Prompt: Endpoint output: PBM binding z-score of CCTGCTAGGTCACGGTCAGCTAATCTACAGTATG . Value?
Completion: 2.08

Prompt: Endpoint output: PBM binding z-score of TCATAGAGGTAAAAGGTGAAAGTCGGTGTGGTAA . Value?
Completion: 2.07

Prompt: Endpoint output: PBM binding z-score of CTTCGGAGGACAACAGGAGGTCAGAGCTGCCAGA . Value?
Completion: 2.41

Prompt: Endpoint output: PBM binding z-score of CCTAGCAGGCCAGGGTCACTTAAGCATTTCGCTT . Value?
Completion: 2.15

Prompt: Endpoint output: PBM binding z-score of TCTTGAAGATCAATAGAGGTTAAGAAAGTGCGCT . Value?
Completion: 3.15

Prompt: Endpoint output: PBM binding z-score of TCGGCTAGGTCAGTTGGTCAGCTAACGAGCTGCC . Value?
Completion: 0.186

Prompt: Endpoint output: PBM binding z-score of CATCCAAGGTCAGAGAGGTCAGTGAATGCCGAGT . Value?
Completion: 6.17

Prompt: Endpoint output: PBM binding z-score of GCGACTGGAGCAAAGCAGGTTACCATAAGGTTGG . Value?
Completion: -0.101

Prompt: Endpoint output: PBM binding z-score of GCTAGCAGGCCATTTGGGCCACTCAATGACGGGC . Value?
Completion: -0.943

Prompt: Endpoint output: PBM binding z-score of TATCCAGGGTCAAAGGCCAGAGTACGAATGTCGA . Value?
Completion: 4.77

Prompt: Endpoint output: PBM binding z-score of CAAAGTAGGTCACAGAGGTCAAAGTCCGTGCGTA . Value?
Completion: 6.71

Prompt: Endpoint output: PBM binding z-score of CCACACAGGTGAAAGGTAACTCAGTCTGGTACGC . Value?
Completion: 1.22
